# system: α2AR-α2AR (Homo sapiens, UniProt P08913)
# Sequence (P08913 1-465) 1: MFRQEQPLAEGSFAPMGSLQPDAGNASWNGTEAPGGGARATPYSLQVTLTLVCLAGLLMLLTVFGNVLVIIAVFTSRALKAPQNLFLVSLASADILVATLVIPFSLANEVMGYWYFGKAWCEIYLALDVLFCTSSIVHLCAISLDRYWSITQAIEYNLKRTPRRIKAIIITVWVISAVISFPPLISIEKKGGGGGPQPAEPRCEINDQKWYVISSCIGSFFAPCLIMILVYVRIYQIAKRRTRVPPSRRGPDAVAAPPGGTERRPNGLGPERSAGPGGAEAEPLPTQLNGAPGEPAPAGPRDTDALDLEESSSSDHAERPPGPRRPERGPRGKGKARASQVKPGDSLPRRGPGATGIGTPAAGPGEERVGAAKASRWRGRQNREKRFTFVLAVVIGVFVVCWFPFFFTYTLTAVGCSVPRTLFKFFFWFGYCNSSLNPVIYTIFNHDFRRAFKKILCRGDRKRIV
# Sequence (P08913 1-465) 2: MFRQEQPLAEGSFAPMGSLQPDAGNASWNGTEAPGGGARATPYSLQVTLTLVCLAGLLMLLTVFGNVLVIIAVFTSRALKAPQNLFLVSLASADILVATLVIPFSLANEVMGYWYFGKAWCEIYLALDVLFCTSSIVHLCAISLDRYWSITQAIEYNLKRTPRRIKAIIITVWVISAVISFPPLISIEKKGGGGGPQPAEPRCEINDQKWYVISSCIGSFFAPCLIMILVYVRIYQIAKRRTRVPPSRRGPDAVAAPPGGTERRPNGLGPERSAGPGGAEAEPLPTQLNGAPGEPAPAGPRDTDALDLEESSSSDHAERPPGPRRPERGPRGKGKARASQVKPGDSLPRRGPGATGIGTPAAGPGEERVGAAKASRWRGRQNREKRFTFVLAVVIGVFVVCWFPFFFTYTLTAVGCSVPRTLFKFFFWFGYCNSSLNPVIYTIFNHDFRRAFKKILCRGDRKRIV
# methodSummary: CODA-RET Gαi1 activation, α2AR-α2AR homomer
# Assay type: cell-based
# experimentalSetup: Gαi1, Table 2
Structures can show the parent of a compound that is named as a salt.
# maps each entry to its Emax

compound	Emax
Cc1cccc([C@H](C)c2cnc[nH]2)c1C [Dexmedetomidine, Dexmedetomidine hydrochloride]	26±3 % of NE
N=C(N)NC(=O)Cc1c(Cl)cccc1Cl [Guanfacine, Guanfacine hydrochloride]	14±2 % of NE
NC[C@H](O)c1ccc(O)c(O)c1 [NE, norepinephrine]	100±3 % of NE
Clc1cccc(Cl)c1N=C1NCCN1 [Clonidine, Clonidine hydrochloride]	18±2 % of NE
CCCN(CCc1cccs1)[C@H]1CCc2c(O)cccc2C1 [Rotigotine, Rotigotine hydrochloride]	0 % of NE

* * *

# system: α2AR-D4.4R (Homo sapiens, UniProt P08913+P21917)
# Sequence (P08913 1-465): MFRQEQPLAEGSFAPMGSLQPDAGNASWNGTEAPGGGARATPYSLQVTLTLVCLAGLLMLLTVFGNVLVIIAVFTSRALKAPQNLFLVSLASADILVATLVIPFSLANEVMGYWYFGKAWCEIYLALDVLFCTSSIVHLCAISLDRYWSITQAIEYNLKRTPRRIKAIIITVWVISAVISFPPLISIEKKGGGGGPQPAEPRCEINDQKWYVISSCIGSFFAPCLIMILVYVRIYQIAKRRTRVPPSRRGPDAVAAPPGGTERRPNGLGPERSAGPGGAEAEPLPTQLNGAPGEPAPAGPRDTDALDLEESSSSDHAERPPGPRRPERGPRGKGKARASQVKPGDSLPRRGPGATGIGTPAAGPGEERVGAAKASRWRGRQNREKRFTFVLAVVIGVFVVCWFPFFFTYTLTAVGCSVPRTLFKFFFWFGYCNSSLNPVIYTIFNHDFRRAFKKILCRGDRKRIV
# Sequence (P21917 1-419): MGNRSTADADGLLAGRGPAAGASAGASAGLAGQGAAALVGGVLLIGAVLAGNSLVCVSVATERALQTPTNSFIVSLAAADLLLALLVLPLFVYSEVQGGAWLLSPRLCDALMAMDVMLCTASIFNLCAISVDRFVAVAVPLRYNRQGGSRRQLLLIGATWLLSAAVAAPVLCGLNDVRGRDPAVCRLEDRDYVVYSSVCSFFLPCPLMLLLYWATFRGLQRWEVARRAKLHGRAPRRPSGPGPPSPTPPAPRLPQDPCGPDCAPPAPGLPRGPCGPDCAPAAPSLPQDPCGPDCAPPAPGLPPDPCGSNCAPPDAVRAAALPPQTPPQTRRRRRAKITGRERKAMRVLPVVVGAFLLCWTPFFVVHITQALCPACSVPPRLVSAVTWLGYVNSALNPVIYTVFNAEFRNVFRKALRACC
# methodSummary: CODA-RET Gαi1 activation, α2AR-D4.4R heteromer
# Assay type: cell-based
# experimentalSetup: Gαi1, Table 2
Structures can show the parent of a compound that is named as a salt.

compound	system	Emax
CCCN(CCc1cccs1)[C@H]1CCc2c(O)cccc2C1 [Rotigotine, Rotigotine hydrochloride]	α2AR-D4.4R (Homo sapiens, UniProt P08913+P21917)	13±2 % of NE
N=C(N)NC(=O)Cc1c(Cl)cccc1Cl [Guanfacine, Guanfacine hydrochloride]	α2AR-D4.4R (Homo sapiens, UniProt P08913+P21917)	0 % of NE
Clc1cccc(Cl)c1N=C1NCCN1 [Clonidine, Clonidine hydrochloride]	α2AR-D4.4R (Homo sapiens, UniProt P08913+P21917)	0 % of NE
CCCN[C@H]1CCc2nc(N)sc2C1 [Pramipexole, Pramipexole dihydrochloride]	α2AR-D4.4R (Homo sapiens, UniProt P08913+P21917)	28±3 % of NE
